Test system: ST486
TEST_DESCRIPTION: Antiproliferative activity against human ST486 cells after 48 to 72 hrs by MTT assay
Type: functional, cell-based
Label key: true (1) means IC50 under 2000 nM; false (0) means IC50 of 2000 nM or more.

Worked cases, answers included:
CN(C)CCOCCn1c2ccccc2c2c3c(c4c5ccccc5[nH]c4c21)C(=O)N(CCN(C)C)C3=O.Cl.Cl : false (0)
CN(C)CCN1C(=O)c2c(c3c4ccccc4n(CCOCCO)c3c3[nH]c4ccccc4c23)C1=O : false (0)
CN[C@@H]1C[C@H]2O[C@@](C)([C@@H]1OC)n1c3ccccc3c3c4c(c5c6ccccc6n2c5c31)C(=O)NC4 [STAUROSPORINE] : true (1)
O=C1NC(=O)c2c1c1c3ccccc3[nH]c1c1c2c2ccccc2n1CCOCCO : true (1)
CN(C)CCN1C(=O)c2c(c3c4ccccc4[nH]c3c3[nH]c4ccccc4c23)C1=O : true (1)

Determine whether this compound shows IC50 lower than 2000 nM (ties excluded): CNCCOCCn1c2ccccc2c2c3c(c4c5ccccc5[nH]c4c21)C(=O)N(CCN(C)C)C3=O
false (0)
